# assayed.system: NCL RBD1,2 (UniProt P19338 307-466)
# Sequence (P19338 307-466): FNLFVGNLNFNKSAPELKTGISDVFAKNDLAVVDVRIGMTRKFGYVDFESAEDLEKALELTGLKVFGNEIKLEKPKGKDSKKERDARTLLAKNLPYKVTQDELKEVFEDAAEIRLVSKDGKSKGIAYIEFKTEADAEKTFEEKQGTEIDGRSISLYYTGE
# assay.details: fluorescence titration; Hill n 0.37; main text prints 4.6 nM (conflict with Table S4); K100: 100 mM KCl, 10 mM lithium cacodylate pH 7.2; 100 nM Cy5-oligonucleotide pre-annealed, 5 min equilibration per protein addition; temperature not stated
# test.settings: label: 5'-Cy5; G-quadruplex
parameter: pKd
Give bare numbers, as −log10 of the molar value.

Just so you know, measured pKd for GGTGGTGGTGGTTTTGGTGGTGGTGG (structured_DNA) [Cy5-AT14] came out at 9.34
